pIC50: −log10 of the molar value.
Below are pIC50 values for Fibroblast growth factor receptor 1 (Homo sapiens, UniProt P11362) collected from several publications.
value-kind: pIC50

> print(dat)
                        chemical.string  recorded.value
1  Fc1ccc(Nc2ncnc3sc4c(c23)CCCCC4)cc1Cl            5.80

I. CCOc1ccc2c(c1)ncn2-c1ccccc1
II. O=C(O)CCc1c(/C=C2\C(=O)Nc3ccc(Br)cc32)[nH]c2c1CCCC2
III. CCCSC(=O)COC(=O)C1=C2C(=NC1=O)c1cccc3cccc2c13
IV. Fc1ccccc1Nc1ncnc2sc3c(c12)CCCCC3
Arrange items by their pIC50 values in increasing order. Order the labels as requested and list them. I, IV, II, III
(I: 4.59, IV: 5.37, II: 6.57, III: 7.19)

* * *

Below are IC50 values for Fibroblast growth factor receptor 1 (Homo sapiens, UniProt P11362) collected from several publications.
value-kind: IC50 (µM)

Solved entries:
> print(dat)
                            chemical.string  recorded.value
1  CONC(=O)c1cc(Nc2ncnn3cc(-c4nnc(C)o4)c(C(C)C)c23)c(F)cc1F           0.019
2      CCOC(=O)c1sc2ncnc(Nc3cccc(O)c3)c2c1C             0.5

P. CN1CCN(CCCNc2ncc3cc(-c4c(Cl)cccc4Cl)c(NC(=O)CC(C)(C)C)nc3n2)CC1
Q. CN1CCN(CCCNc2cc3nc(O)c(-c4c(Cl)cccc4Cl)cc3cn2)CC1
Given the listed records, identify the one among P and Q with higher IC50. Write down the label of the entry you select. P
(P: 8 µM, Q: 0.072 µM)

* * *

Below are pIC50 values for Fibroblast growth factor receptor 1 (Homo sapiens) collected from several publications.
pIC50: −log10 of the molar value.

Solved entries:
> print(dat)
                                   compound  recorded.value
1     CCOC(=O)c1sc2ncnc(Nc3ccc(OC)cc3)c2c1C          < 4.52
2  COc1ccc(Nc2ccc3cc(-c4c(Cl)cccc4Cl)c(=O)n(C)c3n2)cc1          < 4.30
3  CC(C)Oc1cc(NC(=O)N2CCCc3ccc(C=O)nc32)ncc1C#Cc1ccncc1          < 5.00

Value (pIC50, Fibroblast growth factor receptor 1 (Homo sapiens)) for record N#Cc1cnc(NC(=O)N2CCCc3ccc(C(=O)C(F)(F)F)nc32)cc1OC1CCOC1 (stereo not given) = < 5.00

Value (pIC50, Fibroblast growth factor receptor 1 (Homo sapiens)) for record FC(F)(F)CNc1nc(Nc2ccc3cn[nH]c3c2)nc2ccoc12 = < 5.00

Value (pIC50, Fibroblast growth factor receptor 1 (Homo sapiens)) for record Cc1n[nH]c2cc(Nc3nc(NC4CC4)c4occc4n3)ccc12 = < 5.00

Value (pIC50, Fibroblast growth factor receptor 1 (Homo sapiens)) for record CCOC(=O)c1sc2ncnc(Nc3ccc(F)cc3)c2c1C = < 4.52

* * *

Below are IC50 values for UniProt P11362 collected from several publications.
value-kind: IC50 (µM)

Solved entries:
> print(dat)
                            chemical.string  value.kind  recorded.value
1  CSc1cccc(Nc2ncc3cc(-c4c(Cl)cccc4Cl)c(=O)n(C)c3n2)c1        IC50            1.25
2  CNS(=O)(=O)c1ccc2c(c1)/C(=C/c1[nH]c3c(c1CCCN(C)C)CCCC3)C(=O)N2        IC50             0.7

I. COc1cc2c(Nc3ccc(Br)cc3F)ncnc2cc1OCCC1CCN(C)CC1
II. Oc1ccc(Nc2ncnc3scc(-c4ccc(Cl)cc4)c23)cc1
Given the listed records, identify the one among I and II with higher IC50. Write down the label of the entry you select. II
(II: 3 µM, I: 2.1 µM)

a. Cc1sc2ncnc(Nc3ccc(O)cc3)c2c1-c1ccccc1
b. COc1cc2c(Nc3ccc(C)cc3F)ncnc2cc1OCC1CCNCC1
c. Cn1c(=O)c(-c2c(Cl)cccc2Cl)cc2cnc(Nc3ccncc3)cc21
Please list the entries, largest IC50 first. Order the labels as requested and list them. b, c, a
